Reference source: patent US10300074B2

Could you please report measured pKi for the items listed next?
Molecular target: XIAP BIR1/2 (Homo sapiens (Human), UniProt P98170)
Sequence (P98170 1-240): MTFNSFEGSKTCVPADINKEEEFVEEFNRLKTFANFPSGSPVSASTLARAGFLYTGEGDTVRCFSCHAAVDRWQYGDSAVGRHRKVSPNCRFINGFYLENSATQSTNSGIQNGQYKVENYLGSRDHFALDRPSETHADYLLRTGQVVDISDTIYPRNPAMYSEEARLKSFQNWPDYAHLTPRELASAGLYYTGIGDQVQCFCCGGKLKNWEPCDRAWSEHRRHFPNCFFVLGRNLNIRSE
Assay: XIAP BIR1/2 Ki
Format: binding
Conditions: Table B-1
pKi: −log10 of the molar value.

Enquiry: Report pKi for CN[C@@H](C)C(=O)N[C@H]1CCO[C@H]2CC[C@H](C(=O)N[C@@H]3CCOc4ccccc43)N2C1=O please.
Return: < 4.30

Enquiry: Would you mind telling me what pKi value was observed for CN[C@@H](C)C(=O)N[C@H]1CCO[C@H]2CCC(C(=O)NC(c3ccccc3)c3ccccc3)N2C1=O (stereo partly shown) ?
Return: < 4.30

Enquiry: So what does the record say about pKi for CN[C@@H](C)C(=O)N[C@@H]1C(=O)N2C(C(=O)Nc3cccc4ccccc34)CC[C@@H]2O[C@@H]1C (stereo partly shown) ?
Return: < 4.30

Enquiry: Dear colleague, I am looking for the recorded pKi of the following molecule: CN[C@@H](C)C(=O)N[C@H]1CCN[C@H]2CCC(C(=O)N[C@@H]3CCCc4ccccc43)N2C1=O (stereo partly shown) [Compound 29]
Return: < 4.30

Enquiry: Bench note: what pKi did CN[C@@H](C)C(=O)N[C@H]1CCO[C@H]2CC(C)(C)[C@@H](C(=O)N[C@@H]3CCCc4ccccc43)N2C1=O show?
Return: ≥ 4.60

Enquiry: What pKi value was documented for this molecule, CN[C@@H](C)C(=O)N[C@H]1Cc2c([nH]c3ccccc23)[C@H]2CCC(C(=O)N[C@@H]3CCCc4ccccc43)N2C1=O (stereo partly shown) [Compound 30] ?
Return: < 4.30

Enquiry: Record request: pKi value, item CN[C@@H](C)C(=O)N[C@H]1CCS[C@H]2CC[C@@H](C(=O)N[C@@H]3CCCc4ccccc43)N2C1=O
Return: < 4.30

Enquiry: Requested read-out: pKi. Entry: CN[C@@H](C)C(=O)N[C@H]1Cc2ccc(O)cc2[C@H]2CC(C)(C)C(C(=O)N[C@@H]3CCCc4ccccc43)N2C1=O (stereo partly shown)
Return: ≥ 4.60

Enquiry: Suppose we examine the molecule CN[C@@H](C)C(=O)N[C@H]1CCCNC2CCC(C(=O)Nc3cccc4ccccc34)N2C1=O (stereo partly shown) ; what pKi value has been reported?
Return: ≥ 4.60

Enquiry: // lookup pKi for CN[C@@H](C)C(=O)N[C@H]1CCO[C@H]2CC3(CC=CC3)C(C(=O)N[C@@H]3CCCc4ccccc43)N2C1=O (stereo partly shown)
Return: ≥ 4.60

Enquiry: Request the reported pKi associated with CN[C@@H](C)C(=O)N[C@H]1CCO[C@H]2c3ccccc3C(C(=O)N[C@@H]3CCCc4ccccc43)N2C1=O (stereo partly shown)
Return: < 4.30

Enquiry: I would be grateful if you could share the reported pKi for CN[C@@H](C)C(=O)N[C@H]1CCS[C@H]2CC(C)(C)C(C(=O)N[C@@H]3CCCc4ccccc43)N2C1=O (stereo partly shown) .
Return: ≥ 4.60

Enquiry: Would you mind telling me what pKi value was observed for CN[C@@H](C)C(=O)N[C@H]1CCS[C@H]2CCCC(C(=O)N[C@@H]3CCCc4ccccc43)N2C1=O (stereo partly shown) ?
Return: ≥ 4.60

###

Target: XIAP BIR3 (Homo sapiens (Human), UniProt P98170)
Sequence (P98170 241-356): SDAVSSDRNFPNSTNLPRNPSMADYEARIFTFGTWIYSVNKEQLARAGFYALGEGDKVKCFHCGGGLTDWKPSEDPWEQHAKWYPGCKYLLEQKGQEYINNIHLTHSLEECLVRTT
Assay: XIAP BIR3 Ki
Type: binding
Conditions: Table 2-2
Give measured Ki for each item. Keep answers brief.

Enquiry: State the recorded Ki for this entry: CN[C@@H](C)C(=O)N[C@H]1CCO[C@H]2CC(C)(C)C(C(=O)N[C@@H]3CCCc4ccccc43)N2C1=O (stereo partly drawn) [Compound 17b]
Return: ≤ 25 µM

Enquiry: Give the measured Ki of CN[C@@H](C)C(=O)N[C@H]1CCO[C@H]2c3ccccc3C(C(=O)N[C@@H]3CCCc4ccccc43)N2C1=O (stereo partly drawn) [Compound 17a] .
Return: ≤ 25 µM

Enquiry: Which Ki reading was recorded for the molecule CN[C@@H](C)C(=O)N[C@H]1CCS[C@H]2CC(C)(C)C(C(=O)N[C@@H]3CCCc4ccccc43)N2C1=O (stereo partly drawn) [Compound 17c] ?
Return: ≤ 25 µM
